Hello, the source for this data is paper PMC5540273, in case you need it.

Tested on: MARK1;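 also: KINOMEscan kinase panel screen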
condition_description: concentration: 1 μM, replicates: in singlicate; n = 1
As shown below, each of these compounds has a reported %Inh value.
readout_label: %Inh (%)

• Cn1cc(-c2ccc3c(c2)CCN3C(=O)Cc2cccc(C(F)(F)F)c2)c2c(N)ncnc21 = 6
• O=c1cc(N2CCOCC2)nc2n(Cc3cccc(Cl)c3)ccn12 = 0
• CC(C)N1CCC(n2cnc(-c3ccc(F)cc3)c2-c2ccnc(N)n2)CC1 = 0
• CC(=O)Nc1n[nH]c2ncc(-c3ccccc3)cc12 = 11
• Nc1nc(-c2ccccn2)c(-c2ccnc3ccccc23)s1 = 0
• Cl.c1ccc(Cn2ccc3cc(Nc4ncnc5ccccc45)ccc32)cc1 = 17
• CCC(CC)(CC)n1cnc2c(N)ncnc21 = 24
• FC(F)(F)c1cc(Nc2nccc(-c3c(-c4ccc(Cl)cc4)nn4ncccc34)n2)ccc1Cl = 0
• O=C(CCO)NCCn1ccc2ncnc(Nc3ccc(Oc4cccc(C(F)(F)F)c4)c(Cl)c3)c21 = 0
• N#Cc1ccc(Oc2ccc(Nc3ncnc4cc[nH]c34)cc2Cl)cc1 = 3
• O=C(Nc1n[nH]c2nc(-c3ccco3)c(Br)cc12)c1ccc(CN2CCCC2)cc1.O=C(O)[C@H](O)[C@@H](O)C(=O)O = 0
• CCn1c(-c2ccncc2)nc2cnccc21 = 16
• NC(=O)c1sc(-n2cnc3ccccc32)cc1OCc1ccccc1F = 0
• Clc1cc(Nc2ncnc3cc[nH]c23)ccc1OCc1ccccn1 = 13
• Cc1ccc(O)cc1Nc1cc(C(F)(F)F)nc2ccc(-c3ccncc3)cc12 = 0
• CNc1nccc(-c2c(-c3ccc(F)cc3)ncn2C2CCN(C)CC2)n1 = 0
• COc1ccc(NC(=O)c2ccc(-c3cc(-c4nnc(C)o4)ccc3C)cc2)cc1 = 0
• Fc1cccc(COc2ccc(Nc3ncnc4cc[nH]c34)cc2Cl)c1 = 0
• Cl.Cn1ccc(-c2cccc(Nc3ccnc4cc(-c5nccs5)ccc34)c2)n1 = 28
